# System tested: IRAK4 (human)
# Measurement notes: radiometric filter-binding kinase assay
# Measurement conditions: compound 100.0 µM; ATP 20 µM
Below is a list of entries, each paired with its recorded inhibition value.

# Compound, inhibition / %
measured = [
    ("O=c1cc(-c2ccccc2F)nc2[nH]ccn12", 40),
    ("COc1ccc(-c2cc3c(=O)[nH]cnc3s2)cc1OC", 9),
    ("Nc1nc2cnc(-c3ccccc3)cn2n1", 80),
    ("COc1ccc(NC(=S)Nc2cnc3[nH]cnn3c2=O)cn1", 0),
    ("CC(C)(C)Nc1c(C2CC2)nc2[nH]cnn12", 0),
    ("CC(C)(C)Nc1c(COCc2ccccc2)nc2[nH]cnn12", 0),
    ("CC(=O)Nc1nc2cnc(-c3c(C)cccc3C)cn2n1", 0),
    ("CC1CN(c2nc3ccccn3c(=O)c2N)CC(C)O1 (stereo not given)", 3),
    ("O=C(c1cccc(-c2cc3c(=O)[nH]cnc3s2)c1)N1CCOCC1", 28),
    ("O=C(Nc1cnc2[nH]cnn2c1=O)c1ccccc1", 0),
    ("O=c1c(NC(=S)NCc2ccccc2)cnc2[nH]ccn12", 6),
    ("Cc1cccc(C)c1-c1cn2nc(N)nc2cn1", 18),
    ("O=C(Nc1cnc2[nH]ccn2c1=O)c1ccccc1", 19),
    ("CC(=O)Nc1nc2cnc(-c3ccccc3)cn2n1", 39),
    ("Nc1cnc2c(-c3c(F)cccc3F)cccn2c1=O", 31),
]

* * *

# System tested: PAK6 (human)
# Measurement notes: radiometric filter-binding kinase assay
# Measurement conditions: compound 100.0 µM; ATP 20 µM

# Molecule, System tested, inhibition (%)
records = [
    ("O=C(c1cccc(-c2cc3c(=O)[nH]cnc3s2)c1)N1CCOCC1", "PAK6 (human)", 0),
    ("Cc1cccc(C)c1-c1cn2nc(N)nc2cn1", "PAK6 (human)", 11),
    ("CC(=O)Nc1nc2cnc(-c3ccccc3)cn2n1", "PAK6 (human)", 18),
    ("CC(=O)Nc1nc2cnc(-c3c(C)cccc3C)cn2n1", "PAK6 (human)", 0),
    ("CC1CN(c2nc3ccccn3c(=O)c2N)CC(C)O1 (stereo not given)", "PAK6 (human)", 4),
    ("O=C(Nc1cnc2[nH]cnn2c1=O)c1ccccc1", "PAK6 (human)", 0),
    ("COc1ccc(NC(=S)Nc2cnc3[nH]cnn3c2=O)cn1", "PAK6 (human)", 0),
    ("O=C(Nc1cnc2[nH]ccn2c1=O)c1ccccc1", "PAK6 (human)", 6),
    ("O=c1c(NC(=S)NCc2ccccc2)cnc2[nH]ccn12", "PAK6 (human)", 0),
    ("Nc1nc2cnc(-c3ccccc3)cn2n1", "PAK6 (human)", 36),
    ("CC(C)(C)Nc1c(C2CC2)nc2[nH]cnn12", "PAK6 (human)", 0),
    ("Nc1cnc2c(-c3c(F)cccc3F)cccn2c1=O", "PAK6 (human)", 10),
    ("COc1ccc(-c2cc3c(=O)[nH]cnc3s2)cc1OC", "PAK6 (human)", 0),
    ("O=c1cc(-c2ccccc2F)nc2[nH]ccn12", "PAK6 (human)", 3),
    ("CC(C)(C)Nc1c(COCc2ccccc2)nc2[nH]cnn12", "PAK6 (human)", 20),
]

* * *

# System tested: RPS6KA1 KD1 KD2 (human)
# Measurement notes: radiometric filter-binding kinase assay
# Measurement conditions: compound 100.0 µM; ATP 50 µM

# Compound, Unit name, inhibition
records = [
    ("O=C(Nc1cnc2[nH]cnn2c1=O)c1ccccc1", "%", 15),
    ("O=C(c1cccc(-c2cc3c(=O)[nH]cnc3s2)c1)N1CCOCC1", "%", 47),
    ("O=c1cc(-c2ccccc2F)nc2[nH]ccn12", "%", 16),
    ("COc1ccc(NC(=S)Nc2cnc3[nH]cnn3c2=O)cn1", "%", 19),
    ("Cc1cccc(C)c1-c1cn2nc(N)nc2cn1", "%", 21),
    ("CC1CN(c2nc3ccccn3c(=O)c2N)CC(C)O1 (stereo not given)", "%", 0),
    ("COc1ccc(-c2cc3c(=O)[nH]cnc3s2)cc1OC", "%", 59),
    ("CC(=O)Nc1nc2cnc(-c3c(C)cccc3C)cn2n1", "%", 0),
    ("O=C(Nc1cnc2[nH]ccn2c1=O)c1ccccc1", "%", 23),
    ("O=c1c(NC(=S)NCc2ccccc2)cnc2[nH]ccn12", "%", 17),
    ("Nc1cnc2c(-c3c(F)cccc3F)cccn2c1=O", "%", 21),
    ("CC(C)(C)Nc1c(COCc2ccccc2)nc2[nH]cnn12", "%", 3),
    ("CC(C)(C)Nc1c(C2CC2)nc2[nH]cnn12", "%", 3),
    ("Nc1nc2cnc(-c3ccccc3)cn2n1", "%", 34),
    ("CC(=O)Nc1nc2cnc(-c3ccccc3)cn2n1", "%", 24),
]

* * *

Below is a list of entries, each paired with its recorded inhibition value.
# System tested: ZAP70 (human) (UniProt P43403)
# Sequence (P43403 whole entry, looked up): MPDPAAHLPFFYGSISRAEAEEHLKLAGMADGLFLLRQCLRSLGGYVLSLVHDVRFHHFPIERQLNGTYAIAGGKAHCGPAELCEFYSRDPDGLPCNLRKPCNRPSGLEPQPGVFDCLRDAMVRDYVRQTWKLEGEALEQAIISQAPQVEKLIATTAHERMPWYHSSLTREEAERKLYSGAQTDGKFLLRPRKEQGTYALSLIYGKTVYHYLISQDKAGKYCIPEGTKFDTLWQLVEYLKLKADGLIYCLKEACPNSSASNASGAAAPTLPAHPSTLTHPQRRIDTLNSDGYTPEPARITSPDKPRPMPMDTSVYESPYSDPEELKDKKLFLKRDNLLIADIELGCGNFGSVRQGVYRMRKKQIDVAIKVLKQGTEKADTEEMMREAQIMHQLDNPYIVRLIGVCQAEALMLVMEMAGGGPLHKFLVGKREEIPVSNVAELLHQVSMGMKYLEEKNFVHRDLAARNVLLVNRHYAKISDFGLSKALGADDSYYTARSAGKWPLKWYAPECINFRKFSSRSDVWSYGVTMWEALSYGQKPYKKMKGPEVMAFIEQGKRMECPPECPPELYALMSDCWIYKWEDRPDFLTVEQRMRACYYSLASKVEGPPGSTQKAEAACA
# Measurement notes: radiometric filter-binding kinase assay
# Measurement conditions: compound 100.0 µM; ATP 5 µM

# Compound, inhibition [%]
rows = [
    ("CC(C)(C)Nc1c(C2CC2)nc2[nH]cnn12", 1),
    ("Nc1cnc2c(-c3c(F)cccc3F)cccn2c1=O", 1),
    ("O=C(c1cccc(-c2cc3c(=O)[nH]cnc3s2)c1)N1CCOCC1", 0),
    ("Cc1cccc(C)c1-c1cn2nc(N)nc2cn1", 0),
    ("CC(=O)Nc1nc2cnc(-c3ccccc3)cn2n1", 16),
    ("CC(=O)Nc1nc2cnc(-c3c(C)cccc3C)cn2n1", 9),
    ("Nc1nc2cnc(-c3ccccc3)cn2n1", 0),
    ("O=C(Nc1cnc2[nH]ccn2c1=O)c1ccccc1", 9),
    ("O=C(Nc1cnc2[nH]cnn2c1=O)c1ccccc1", 0),
    ("O=c1cc(-c2ccccc2F)nc2[nH]ccn12", 0),
    ("COc1ccc(-c2cc3c(=O)[nH]cnc3s2)cc1OC", 0),
    ("CC(C)(C)Nc1c(COCc2ccccc2)nc2[nH]cnn12", 0),
    ("COc1ccc(NC(=S)Nc2cnc3[nH]cnn3c2=O)cn1", 23),
    ("CC1CN(c2nc3ccccn3c(=O)c2N)CC(C)O1 (stereo not given)", 38),
    ("O=c1c(NC(=S)NCc2ccccc2)cnc2[nH]ccn12", 0),
]

* * *

# System tested: UniProt:P00519
# Sequence (P00519 whole entry, looked up): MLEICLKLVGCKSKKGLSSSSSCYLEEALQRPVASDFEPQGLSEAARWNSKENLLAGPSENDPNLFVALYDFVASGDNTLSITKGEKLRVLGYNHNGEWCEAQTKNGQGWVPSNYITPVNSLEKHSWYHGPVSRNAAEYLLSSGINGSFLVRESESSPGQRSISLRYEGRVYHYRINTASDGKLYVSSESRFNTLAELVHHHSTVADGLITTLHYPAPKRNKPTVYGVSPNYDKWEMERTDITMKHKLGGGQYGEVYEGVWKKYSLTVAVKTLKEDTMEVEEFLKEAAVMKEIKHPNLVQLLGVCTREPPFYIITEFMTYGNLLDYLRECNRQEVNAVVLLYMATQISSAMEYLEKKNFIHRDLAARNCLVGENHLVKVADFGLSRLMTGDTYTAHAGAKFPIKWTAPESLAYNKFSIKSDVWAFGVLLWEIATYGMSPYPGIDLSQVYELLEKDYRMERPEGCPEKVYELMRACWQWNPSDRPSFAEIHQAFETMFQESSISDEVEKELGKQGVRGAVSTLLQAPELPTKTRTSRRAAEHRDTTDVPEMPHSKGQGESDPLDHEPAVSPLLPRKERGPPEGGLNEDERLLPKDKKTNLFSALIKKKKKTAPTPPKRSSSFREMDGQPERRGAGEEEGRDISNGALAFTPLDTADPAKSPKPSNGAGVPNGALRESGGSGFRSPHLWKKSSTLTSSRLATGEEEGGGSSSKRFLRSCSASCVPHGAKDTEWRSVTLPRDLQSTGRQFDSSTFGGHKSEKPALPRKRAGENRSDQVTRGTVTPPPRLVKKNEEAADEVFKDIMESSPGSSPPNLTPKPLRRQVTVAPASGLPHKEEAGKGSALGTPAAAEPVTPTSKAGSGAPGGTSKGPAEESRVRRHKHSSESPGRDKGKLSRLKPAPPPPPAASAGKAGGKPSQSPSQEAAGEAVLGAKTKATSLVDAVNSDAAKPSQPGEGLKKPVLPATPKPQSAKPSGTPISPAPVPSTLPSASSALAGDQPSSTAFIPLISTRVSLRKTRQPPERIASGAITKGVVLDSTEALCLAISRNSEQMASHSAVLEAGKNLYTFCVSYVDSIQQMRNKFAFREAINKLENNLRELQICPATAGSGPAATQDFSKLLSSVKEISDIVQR
# Measurement notes: radiometric filter-binding kinase assay
# Measurement conditions: compound 100.0 µM; ATP 5 µM
Below is a list of entries, each paired with its recorded inhibition value.

# Molecule, System tested, Unit name, inhibition
data = [
    ("Nc1nc2cnc(-c3ccccc3)cn2n1", "UniProt:P00519", "%", 72),
    ("O=c1c(NC(=S)NCc2ccccc2)cnc2[nH]ccn12", "UniProt:P00519", "%", 0),
    ("CC1CN(c2nc3ccccn3c(=O)c2N)CC(C)O1 (stereo unspecified)", "UniProt:P00519", "%", 2),
    ("O=C(c1cccc(-c2cc3c(=O)[nH]cnc3s2)c1)N1CCOCC1", "UniProt:P00519", "%", 15),
    ("CC(C)(C)Nc1c(C2CC2)nc2[nH]cnn12", "UniProt:P00519", "%", 0),
    ("O=C(Nc1cnc2[nH]ccn2c1=O)c1ccccc1", "UniProt:P00519", "%", 4),
]

* * *

# System tested: MINK1 (human) (UniProt Q8N4C8)
# Sequence (Q8N4C8 whole entry, looked up): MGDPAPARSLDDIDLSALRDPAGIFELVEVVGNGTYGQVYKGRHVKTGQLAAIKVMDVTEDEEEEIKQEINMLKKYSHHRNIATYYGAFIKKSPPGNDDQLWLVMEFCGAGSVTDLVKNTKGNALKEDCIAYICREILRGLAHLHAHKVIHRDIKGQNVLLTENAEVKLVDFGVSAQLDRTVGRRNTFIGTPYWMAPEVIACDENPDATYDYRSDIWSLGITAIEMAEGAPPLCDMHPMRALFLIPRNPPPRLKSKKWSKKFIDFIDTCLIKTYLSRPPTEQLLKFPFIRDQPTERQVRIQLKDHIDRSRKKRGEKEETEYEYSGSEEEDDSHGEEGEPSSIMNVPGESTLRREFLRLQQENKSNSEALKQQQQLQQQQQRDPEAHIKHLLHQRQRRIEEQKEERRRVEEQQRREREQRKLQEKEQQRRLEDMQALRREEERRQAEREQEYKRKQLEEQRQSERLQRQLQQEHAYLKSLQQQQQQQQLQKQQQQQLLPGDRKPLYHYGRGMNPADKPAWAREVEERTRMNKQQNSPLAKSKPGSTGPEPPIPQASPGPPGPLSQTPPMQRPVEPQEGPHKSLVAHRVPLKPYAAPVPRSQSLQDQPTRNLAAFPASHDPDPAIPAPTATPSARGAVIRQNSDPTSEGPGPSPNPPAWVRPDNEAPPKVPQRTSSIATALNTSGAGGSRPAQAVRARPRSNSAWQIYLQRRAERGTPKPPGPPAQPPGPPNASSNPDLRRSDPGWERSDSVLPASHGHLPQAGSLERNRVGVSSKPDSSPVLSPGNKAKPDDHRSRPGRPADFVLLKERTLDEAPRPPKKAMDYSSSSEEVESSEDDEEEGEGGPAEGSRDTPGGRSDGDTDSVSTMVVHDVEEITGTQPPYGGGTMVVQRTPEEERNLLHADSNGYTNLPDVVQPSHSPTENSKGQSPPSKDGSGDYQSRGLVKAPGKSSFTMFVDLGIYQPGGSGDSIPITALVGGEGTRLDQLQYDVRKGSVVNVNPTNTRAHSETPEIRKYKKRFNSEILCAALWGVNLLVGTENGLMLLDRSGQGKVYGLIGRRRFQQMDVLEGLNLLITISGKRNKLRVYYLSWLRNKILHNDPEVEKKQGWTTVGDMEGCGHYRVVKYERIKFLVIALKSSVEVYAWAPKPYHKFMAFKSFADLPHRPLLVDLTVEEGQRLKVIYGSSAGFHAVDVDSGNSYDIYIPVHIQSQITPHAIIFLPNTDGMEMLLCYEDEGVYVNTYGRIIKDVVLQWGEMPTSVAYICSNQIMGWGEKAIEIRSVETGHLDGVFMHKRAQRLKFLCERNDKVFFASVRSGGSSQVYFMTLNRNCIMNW
# Measurement notes: radiometric filter-binding kinase assay
# Measurement conditions: compound 100.0 µM; ATP 50 µM
Classification field: true (1) = inhibition at or over 30%; false (0) = inhibition under 30%.

# Compound, System tested, Group label
rows = [
    ("O=C(c1cccc(-c2cc3c(=O)[nH]cnc3s2)c1)N1CCOCC1", "MINK1 (human) (UniProt Q8N4C8)", "true (1)"),
    ("Nc1nc2cnc(-c3ccccc3)cn2n1", "MINK1 (human) (UniProt Q8N4C8)", "true (1)"),
    ("O=C(Nc1cnc2[nH]ccn2c1=O)c1ccccc1", "MINK1 (human) (UniProt Q8N4C8)", "false (0)"),
    ("COc1ccc(-c2cc3c(=O)[nH]cnc3s2)cc1OC", "MINK1 (human) (UniProt Q8N4C8)", "true (1)"),
    ("CC1CN(c2nc3ccccn3c(=O)c2N)CC(C)O1 (configuration not stated)", "MINK1 (human) (UniProt Q8N4C8)", "false (0)"),
    ("CC(=O)Nc1nc2cnc(-c3ccccc3)cn2n1", "MINK1 (human) (UniProt Q8N4C8)", "true (1)"),
    ("Cc1cccc(C)c1-c1cn2nc(N)nc2cn1", "MINK1 (human) (UniProt Q8N4C8)", "true (1)"),
    ("CC(=O)Nc1nc2cnc(-c3c(C)cccc3C)cn2n1", "MINK1 (human) (UniProt Q8N4C8)", "false (0)"),
    ("Nc1cnc2c(-c3c(F)cccc3F)cccn2c1=O", "MINK1 (human) (UniProt Q8N4C8)", "true (1)"),
    ("O=c1cc(-c2ccccc2F)nc2[nH]ccn12", "MINK1 (human) (UniProt Q8N4C8)", "false (0)"),
    ("COc1ccc(NC(=S)Nc2cnc3[nH]cnn3c2=O)cn1", "MINK1 (human) (UniProt Q8N4C8)", "false (0)"),
    ("CC(C)(C)Nc1c(COCc2ccccc2)nc2[nH]cnn12", "MINK1 (human) (UniProt Q8N4C8)", "false (0)"),
]
